These measurements were taken from patent US20230303681A1.

target.or.system: T1, GST (Pierce) (UniProt P08515 1-218 = GST, limits assumed)
T1 construct: control for the GST part of the fusion protein; also called GST protein; Glutathione-S-transferase
test.details: ELISA, coated GST;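 note: ELISA on plates coated with GST alone at 1-10 µg/ml, antibodies applied at 100-1000x dilution, bound antibody detected by peroxidase substrate colour after acid stop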
observation.type: binding result

anti-TMEM106B antibody TM-3 (antibody, V domains shown) VH: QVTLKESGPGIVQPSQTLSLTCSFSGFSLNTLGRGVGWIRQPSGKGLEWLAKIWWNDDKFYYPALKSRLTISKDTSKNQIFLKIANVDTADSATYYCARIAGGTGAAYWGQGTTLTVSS VL: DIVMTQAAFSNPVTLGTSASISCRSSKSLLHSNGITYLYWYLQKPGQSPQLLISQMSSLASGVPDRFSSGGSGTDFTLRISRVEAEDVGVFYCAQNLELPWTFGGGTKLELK
no binding
anti-TMEM106B antibody TM-8 (antibody, V domains shown, mouse IgG from hybridoma) VH: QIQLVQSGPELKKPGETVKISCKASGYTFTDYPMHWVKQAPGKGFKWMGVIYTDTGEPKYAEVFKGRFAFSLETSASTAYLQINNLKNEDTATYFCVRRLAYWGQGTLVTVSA VL: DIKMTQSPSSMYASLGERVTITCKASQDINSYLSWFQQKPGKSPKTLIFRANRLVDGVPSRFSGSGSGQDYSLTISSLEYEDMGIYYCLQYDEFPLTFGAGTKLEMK
no binding
anti-TMEM106B antibody TM-19 (antibody, V domains shown) VH: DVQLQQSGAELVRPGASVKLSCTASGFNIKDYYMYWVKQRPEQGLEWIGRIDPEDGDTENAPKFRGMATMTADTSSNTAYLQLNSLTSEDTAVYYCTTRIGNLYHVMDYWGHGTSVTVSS VL: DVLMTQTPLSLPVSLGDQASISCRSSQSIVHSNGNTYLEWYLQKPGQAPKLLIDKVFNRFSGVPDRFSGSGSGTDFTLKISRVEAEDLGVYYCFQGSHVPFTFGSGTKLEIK
no binding
